meta.source: ChEMBL document CHEMBL3286094

Tested on: Escherichia coli
Assay: Antibacterial activity against ciprofloxacin-resistant Escherichia coli 72 assessed as growth inhibition after 18 to 24 hrs by broth microdilution method
Type: functional
Lab note: compare MIC50 with 2 µg/mL, writing Fulfilled if less and Not fulfilled if equal or more.

Reference set, count: 3
COc1ccc(-c2nc3ccc(-c4nc5ccc(N6CCN(c7ccncc7)CC6)cc5[nH]4)cc3[nH]2)cc1OC | Fulfilled
COc1ccc(-c2nc3ccc(-c4nc5ccc(N6CCN(c7ncccn7)CC6)cc5[nH]4)cc3[nH]2)cc1OC | Not fulfilled
CCOc1ccc(-c2nc3ccc(-c4nc5ccc(N6CCN(CCN(C)C)CC6)cc5[nH]4)cc3[nH]2)cc1 | Not fulfilled

Ask | Find out if reported MIC50 for `CCOc1ccc(-c2nc3ccc(-c4nc5ccc(N6CCN(CC)CC6)cc5[nH]4)cc3[nH]2)cc1` is less than 2 µg/mL
Reply | Not fulfilled

---

Catalogue of compounds with associated MBC
Tested on: Escherichia coli
Test: Bactericidal activity against ampicillin/chloramphenicol/tetracycline/trimethoprim/ciprofloxacin-resistant Escherichia coli KK45 isolated from water source by agar plating method
Kindly provide the numeric value in µg/mL only, without the unit symbol.

Ask | Param item = `CCOc1ccc(-c2nc3ccc(-c4nc5ccc(N6CCN(CCN(C)C)CC6)cc5[nH]4)cc3[nH]2)cc1` ; retrieve measured MBC.
Reply | 32

Ask | # query: MBC of entry `COc1ccc(-c2nc3ccc(-c4nc5ccc(N6CCN(c7ccncc7)CC6)cc5[nH]4)cc3[nH]2)cc1OC`
Reply | 4

Ask | For the compound `COc1ccc(-c2nc3ccc(-c4nc5ccc(N6CCN(c7ncccn7)CC6)cc5[nH]4)cc3[nH]2)cc1OC` , what MBC is on record?
Reply | 32

Ask | Please give the measured MBC for this compound: `CCCN1CCN(c2ccc3nc(-c4ccc5nc(-c6ccc(OCC)cc6)[nH]c5c4)[nH]c3c2)CC1`
Reply | 2

Ask | I am curious: what MBC value has been reported for `CCCN1CCN(c2ccc3nc(-c4ccc5nc(-c6ccc(OC)c(OC)c6)[nH]c5c4)[nH]c3c2)CC1` ?
Reply | 8

Ask | For the compound shown here, `CCOc1ccc(-c2nc3ccc(-c4nc5ccc(N6CCN(CC)CC6)cc5[nH]4)cc3[nH]2)cc1` , give the reported MBC.
Reply | 8

---

Collected IC50 values appear next to each entry.
Test: Inhibition of Escherichia coli DNA topoisomerase-1A using supercoiled pHOT1 plasmid DNA as substrate assessed as inhibition of DNA relaxation after 30 mins by agarose gel electrophoresis
Entry rule: numbers only, all in µM.

Solved cases (8 shown):
Nc1ccc(N2CCN(c3ccc4nc(-c5ccc6nc(-c7ccc(O)cc7)[nH]c6c5)[nH]c4c3)CC2)cc1 | 4.7
N#Cc1ccccc1N1CCN(c2ccc3nc(-c4ccc5nc(-c6ccc(O)cc6)[nH]c5c4)[nH]c3c2)CC1 | 20.4
CCN1CCN(c2ccc3nc(-c4ccc5nc(-c6ccc(O)cc6)[nH]c5c4)[nH]c3c2)CC1 | 5.8
COc1ccc(-c2nc3ccc(-c4nc5ccc(N6CCN(c7ccncc7)CC6)cc5[nH]4)cc3[nH]2)cc1OC | 6.2
CCN1CCN(c2ccc3nc(-c4ccc5nc(-c6ccc(OC)c(OC)c6)[nH]c5c4)[nH]c3c2)CC1 | 12.3
COc1ccc(-c2nc3ccc(-c4nc5ccc(N6CCN(c7ccc(N)cc7)CC6)cc5[nH]4)cc3[nH]2)cc1OC | 20.3
Oc1ccc(-c2nc3ccc(-c4nc5ccc(N6CCN(c7ccc(F)cc7)CC6)cc5[nH]4)cc3[nH]2)cc1 | 20.3
CCOc1ccc(-c2nc3ccc(-c4nc5ccc(N6CCN(CCNC(=O)C(F)(F)F)CC6)cc5[nH]4)cc3[nH]2)cc1 | 50.8

Ask | Bench note: what IC50 did `COc1ccc(-c2nc3ccc(-c4nc5ccc(N6CCN(c7ccccc7)CC6)cc5[nH]4)cc3[nH]2)cc1OC` show?
Reply | 3.8

Ask | Which value of IC50 has been reported for `Oc1ccc(-c2nc3ccc(-c4nc5ccc(N6CCN(c7ccccc7)CC6)cc5[nH]4)cc3[nH]2)cc1` in the records?
Reply | 60.3

Ask | Quick one: IC50 of `COc1ccc(-c2nc3ccc(-c4nc5ccc(N6CCN(c7ccccc7C#N)CC6)cc5[nH]4)cc3[nH]2)cc1OC` ?
Reply | 3.76

Ask | Request the reported IC50 associated with `COc1ccc(-c2nc3ccc(-c4nc5ccc(N6CCN(CCN(C)C)CC6)cc5[nH]4)cc3[nH]2)cc1OC`
Reply | 3

Ask | IC50 lookup needed for `CCCN1CCN(c2ccc3nc(-c4ccc5nc(-c6ccc(OCC)cc6)[nH]c5c4)[nH]c3c2)CC1` , thanks.
Reply | 2

Ask | Looking for the measured IC50 of `COc1ccc(-c2nc3ccc(-c4nc5ccc(N6CCN(c7ncccn7)CC6)cc5[nH]4)cc3[nH]2)cc1OC` , can you help?
Reply | 6.2
